Known T/C of a selection of molecules
- Tested on: BDF1 mice, colon carcinoma 38 sc, T/C %
- assay.name: NCI In Vivo Anticancer Drug Screen. Data for tumor model Colon Carcinoma 38 (subcutaneous) in B6D2F1 (BDF1) mice
- conditions.used: endpoint: median tumor weight (est.); dose: 100.0 mg/kg/injection; schedule: Q07DX002 (ip); vehicle: saline; higher = larger tumour
Inconclusive results are not listed.

O=[N+]([O-])O.[Ga]; 81 % of control

Would you mind telling me what T/C value was observed for Cc1c(N)nc(C(CC(N)=O)NCC(N)C(N)=O)nc1C(=O)NC(C(=O)NC(C)C(O)C(C)C(=O)NC(C(=O)NCCc1nc(-c2nc(C(=O)NCCCNCCCc3ccccn3)cs2)cs1)C(C)O)C(OC1OC(CO)C(O)C(O)C1OC1OC(CO)C(O)C(OC(N)=O)C1O)c1cnc[nH]1 (stereo not given) ?
29 % of control

Need T/C of O=c1n[n+]([O-])ccn1C1OC(CO)C(O)C1O (stereo not given) , thanks.
160 % of control

Form field: reported T/C of O=C(NO)c1ccccc1
63 % of control

Item NCCCNCCSP(=O)(O)O has what recorded T/C?
72 % of control

====

Entries and their T/C
- Tested on: BDF1 mice, colon carcinoma 38 sc, T/C %
- assay.name: NCI In Vivo Anticancer Drug Screen. Data for tumor model Colon Carcinoma 38 (subcutaneous) in B6D2F1 (BDF1) mice
- conditions.used: endpoint: median tumor weight (est.); dose: 25.0 mg/kg/injection; schedule: Q07DX003 (ip); vehicle: saline with Tween-80; higher = larger tumour
Records with an inconclusive call do not appear.

As a guide, the following entries are already answered.
CC1=C(/C=C/C(C)=C/C=C/C(C)=C/C(=O)O)C(C)(C)CCC1; 100 % of control
Brc1ccc(C[N+]23CN4CN(CN(C4)C2)C3)cc1; 79 % of control
CC(=O)OCC1OC(n2cc(CBr)nn2)C(OC(C)=O)C(OC(C)=O)C1OC(C)=O (stereo not given); 90 % of control
CC(=O)Oc1ccc[nH]c1=O; 101 % of control

We next turn to a different compound, shown below.
Look up T/C: Cc1ncc([N+](=O)[O-])n1CCSC(N)=O
164 % of control

====

- System: BDF1 mice, colon carcinoma 38 sc, T/C %
- assay.name: NCI In Vivo Anticancer Drug Screen. Data for tumor model Colon Carcinoma 38 (subcutaneous) in B6D2F1 (BDF1) mice
- conditions.used: endpoint: median tumor weight (est.); dose: 6.25 mg/kg/injection; schedule: Q07DX002 (ip); vehicle: saline; higher = larger tumour
Records with an inconclusive call do not appear.
measured.quantity: T/C

These recorded examples may help you get a feel for the data.
CN1CCN(CCCN2c3ccccc3Sc3ccc(C(F)(F)F)cc32)CC1; 116 % of control
Cc1c(CNc2ccc(C(=O)NC(CC(=O)O)C(=O)O)cc2)ccc2nc(N)nc(N)c12 (centres undefined); 48 % of control
O=c1[nH]c(=O)n(C2OC(CO)C(O)C2O)cc1F (centres undefined); 106 % of control

// next entry
Write down the reported T/C of CCN(CC)CCC(=O)c1ccccc1 , test system: BDF1 mice, colon carcinoma 38 sc, T/C %.
85 % of control

====

- System: BDF1 mice, colon carcinoma 38 sc, T/C %
- assay.name: NCI In Vivo Anticancer Drug Screen. Data for tumor model Colon Carcinoma 38 (subcutaneous) in B6D2F1 (BDF1) mice
- conditions.used: endpoint: median tumor weight (est.); dose: 12.5 mg/kg/injection; schedule: Q07DX002 (ip); vehicle: Klucel (hydroxypropylcellulose) (HPC); higher = larger tumour
Inconclusive results are not listed.
measured.quantity: T/C

Illustrative cases are given below, each with its answer.
C[C@]12C=CC(=O)C=C1CC[C@@H]1[C@@H]2C(=O)C[C@@]2(C)[C@H]1CC[C@]2(O)C(=O)CO; 108 % of control
CC(=O)[O][Pb]([O]C(C)=O)([c]1ccccc1)[c]1ccccc1; 216 % of control
COc1c(CNC(=O)CCl)cc2[nH]c(C)cc2c1CNC(=O)CCl; 101 % of control
C=C(Cl)C(=NC(C)(C)C)Nc1ccccc1C; 96 % of control
C=CCNc1ccc(C)cc1; 72 % of control

Need T/C of CN1CCc2c(c3ccccc3c3ccccc23)C1 , thanks.
93 % of control

Any idea what its T/C is? The molecule is COc1cc(C(=O)c2cc3c(cc2C)OCO3)cc(OC)c1OC
77 % of control

Field request: T/C | item: O=C(C#Cc1ccccc1)c1ccccc1
83 % of control

Which T/C value is on record for O=S(CCCl)CCCl ?
150 % of control

Given CC(=O)OCC(=O)[C@@]12OC(C)(C)O[C@@H]1C[C@H]1[C@@H]3CC(C=O)=C4C=C(OCCCl)CC[C@]4(C)[C@@]3(F)[C@@H](O)C[C@@]12C , state its recorded T/C.
86 % of control

Could you tell me which T/C is on file for O=NN(CCCl)C(=O)NC1CCCCC1 ?
64 % of control

Can you share its T/C? I mean this molecule: O=NN(CCF)C(=O)NC1CCCCC1
77 % of control

====

Item-by-item account of T/C
- System: BDF1 mice, colon carcinoma 38 sc, T/C %
- assay.name: NCI In Vivo Anticancer Drug Screen. Data for tumor model Colon Carcinoma 38 (subcutaneous) in B6D2F1 (BDF1) mice
- conditions.used: endpoint: median tumor weight (est.); dose: 50.0 mg/kg/injection; schedule: Q07DX002 (ip); vehicle: sodium bicarbonate; higher = larger tumour
Results filed as inconclusive are left out.

Completed entries (count: 3):
C#CCN(Cc1ccc2nc(N)[nH]c(=O)c2c1)c1ccc(C(=O)NC(CCC(=O)O)C(=O)O)cc1 (centres undefined); 60 % of control
Cc1cc2c(=O)c3ccccc3oc2c(C(=O)O)c1C; 69 % of control
O=C(O)Cc1cccc2c(=O)cc(-c3ccccc3)oc12; 46 % of control

Now turn to the next compound.
Form field: reported T/C of O=C(O)c1ccc(C(=O)O)c(C(=O)O)c1.[NH-]C1CCCCC1[NH-].[Pt+2]
33 % of control

====

Parameter T/C: see the listing below.
- Test system: BDF1 mice, colon carcinoma 38 sc, T/C %
- assay.name: NCI In Vivo Anticancer Drug Screen. Data for tumor model Colon Carcinoma 38 (subcutaneous) in B6D2F1 (BDF1) mice
- conditions.used: endpoint: median tumor weight (est.); dose: 3.12 mg/kg/injection; schedule: Q07DX002 (ip); vehicle: saline; higher = larger tumour
Inconclusive results are not listed.

A selection of reference data follows.
CCNC(=O)OCc1c(COC(=O)NCC)c(-c2ccc(Cl)c(Cl)c2)n2c1CCC2; 74 % of control
CCN(CC)CC[n+]1ccc2c(C)c3[nH]c4ccc(O)cc4c3c(C)c2c1; 38 % of control
CN(N=O)C(N)=O; 95 % of control

Quick check: T/C of O=CC(O)C(O)C(O)C(O)C(=O)O.[NH-]C1CCCCC1[NH-].[Pt+2] (centres undefined) ?
56 % of control

====

- Test system: BDF1 mice, colon carcinoma 38 sc, T/C %
- assay.name: NCI In Vivo Anticancer Drug Screen. Data for tumor model Colon Carcinoma 38 (subcutaneous) in B6D2F1 (BDF1) mice
- conditions.used: endpoint: median tumor weight (est.); dose: 25.0 mg/kg/injection; schedule: Q07DX002 (ip); vehicle: saline with Tween-80; higher = larger tumour
Inconclusive results are not listed.
The compounds listed here are annotated with their T/C.

Solved entries (count: 3):
Clc1cc(Cl)c(C[N+]23CN4CN(CN(C4)C2)C3)cc1Cl; 118 % of control
NS(=O)(=O)OCCCCCCCOS(N)(=O)=O; 124 % of control
O=Cc1ccc(C(Cl)(Cl)Cl)cc1; 74 % of control

Which measured T/C value corresponds to ClC(Cl)(Cl)C1=NCc2nnn(Cc3ccccc3)c2N1 ?
97 % of control

# query: T/C of entry Nc1nc(N)c2c(ccc3c2ccn3Cc2cccc([N+](=O)[O-])c2)n1
14 % of control

I am curious: what T/C value has been reported for CCCCCCCCCCCCCCCC(=O)OCC1OC(n2ccc(N)nc2=O)C(O)C1O (stereo unspecified) ?
72 % of control

====

- Test system: BDF1 mice, colon carcinoma 38 sc, T/C %
- assay.name: NCI In Vivo Anticancer Drug Screen. Data for tumor model Colon Carcinoma 38 (subcutaneous) in B6D2F1 (BDF1) mice
- conditions.used: endpoint: median tumor weight (est.); dose: 25.0 mg/kg/injection; schedule: Q07DX003 (ip); vehicle: Klucel (hydroxypropylcellulose) (HPC); higher = larger tumour
Inconclusive results are not listed.
measured.quantity: T/C

Recorded T/C for CC12CC(C(=O)O)C3(O)CC(C)(C1)CC(C)(C2)C3 (centres undefined) (tested in a mixture with another compound) , please?
94 % of control

Record request: T/C value, item CN(C1=NS(=O)(=O)N=C(N(C)c2ccccc2)O1)c1ccccc1
68 % of control

Would you mind telling me what T/C value was observed for CC(=O)OCC1OC(n2cc(CBr)nn2)C(OC(C)=O)C(OC(C)=O)C1OC(C)=O (centres undefined) ?
120 % of control

# query: T/C of entry O=S(CCCl)CCCl
95 % of control
